Target: MAL^TIR (Homo sapiens, UniProt P58753)
Construct: MAL (residues 79–221); 6xHis; made in house; host or cells: E. coli BL21 (DE3)
Sequence (P58753 79-221): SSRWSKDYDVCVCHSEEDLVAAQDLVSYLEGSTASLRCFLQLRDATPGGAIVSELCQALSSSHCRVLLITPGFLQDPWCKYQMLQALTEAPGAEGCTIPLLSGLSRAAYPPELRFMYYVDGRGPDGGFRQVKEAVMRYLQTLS
Test: T‐Surf phage library (P8 and P3) selection against MAL^TIR, four rounds, NGS read counts
Format: binding
Details: P8 library, 4R selection against MAL, rank after grouping
In this section, each of the sequences is paired with its reported P8_MAL Rank (after).

Completed entries (count: 3):
biopolymerSequence: DFLNWFIALKSTVLET
P8_MAL Rank (after): 598
//
biopolymerSequence: AFFWAQLKSVLGNPAR
P8_MAL Rank (after): 605
//
biopolymerSequence: AFFLAQLKSVMGNPTM
P8_MAL Rank (after): 645

Item WFYEPLVSQITRDTKV : provide P8_MAL Rank (after) 586

Provide P8_MAL Rank (after) value for the following sequence: DDAVWVYEHLVKFLEG 617

Tell us which P8_MAL Rank (after) value is on record for LFFYESLKHLLRIDCR 646

Supply measured P8_MAL Rank (after) of RNFVAYLFQALANTSI in your reply. 585

# return recorded P8_MAL Rank (after) for input AFFWEQLRTVLRKPTT 631

Indicate the recorded P8_MAL Rank (after) value for this sequence: QLIQHWIELHQHQLHL 630
